Data origin, for the record: patent US20220064322A1

biological target: human CD73 on the cell surface (293T/17-huCD73 cells) (human) (UniProt P21589); assay: cell-based or functional assay
Sequence (P21589 27-549): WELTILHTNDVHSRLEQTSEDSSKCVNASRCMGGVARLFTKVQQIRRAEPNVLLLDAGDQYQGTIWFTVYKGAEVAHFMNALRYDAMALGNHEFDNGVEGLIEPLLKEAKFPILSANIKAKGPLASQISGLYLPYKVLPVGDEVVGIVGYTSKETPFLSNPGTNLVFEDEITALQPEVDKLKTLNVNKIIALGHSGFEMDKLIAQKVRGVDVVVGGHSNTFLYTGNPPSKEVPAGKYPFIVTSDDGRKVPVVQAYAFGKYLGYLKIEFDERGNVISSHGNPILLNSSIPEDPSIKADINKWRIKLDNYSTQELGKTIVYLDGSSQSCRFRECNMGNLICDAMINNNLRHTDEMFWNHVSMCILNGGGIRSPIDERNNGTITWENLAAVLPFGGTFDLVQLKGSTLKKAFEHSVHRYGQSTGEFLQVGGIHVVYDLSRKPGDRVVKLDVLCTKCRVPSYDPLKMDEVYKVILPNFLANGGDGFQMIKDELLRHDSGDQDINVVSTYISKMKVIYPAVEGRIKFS
So I've got a bunch of binders here, and I need their IC50, blockade of 5'exonuclease activity on 293T/17-human CD73 cells values.
Write the number in pM without appending the unit.

Asked: Name the recorded IC50, blockade of 5'exonuclease activity on 293T/17-human CD73 cells for JB94H3L3 (antibody, human IgG1, kappa, V domains shown) VH: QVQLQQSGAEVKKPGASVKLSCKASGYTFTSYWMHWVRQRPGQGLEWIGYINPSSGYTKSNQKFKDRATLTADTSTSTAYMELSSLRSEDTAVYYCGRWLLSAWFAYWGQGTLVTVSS VL: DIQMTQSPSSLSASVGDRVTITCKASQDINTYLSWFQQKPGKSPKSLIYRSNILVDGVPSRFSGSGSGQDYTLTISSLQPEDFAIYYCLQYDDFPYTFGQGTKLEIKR .
Given back: 4

Asked: What do you have for JB94H2L1 (antibody, human IgG1, kappa, V domains shown) VH: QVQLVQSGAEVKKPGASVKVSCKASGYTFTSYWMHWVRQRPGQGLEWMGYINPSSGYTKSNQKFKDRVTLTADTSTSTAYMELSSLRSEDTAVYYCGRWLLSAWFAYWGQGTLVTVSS VL: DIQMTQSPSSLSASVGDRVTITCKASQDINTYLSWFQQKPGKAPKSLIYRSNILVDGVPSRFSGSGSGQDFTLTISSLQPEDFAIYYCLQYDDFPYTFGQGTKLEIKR ?
Given back: 5

Asked: What do you have for JB24H3L3 (antibody, human IgG1, kappa, V domains shown) VH: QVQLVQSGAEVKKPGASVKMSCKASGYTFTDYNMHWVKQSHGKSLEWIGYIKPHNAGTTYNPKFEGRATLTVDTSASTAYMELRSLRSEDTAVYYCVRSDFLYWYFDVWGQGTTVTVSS VL: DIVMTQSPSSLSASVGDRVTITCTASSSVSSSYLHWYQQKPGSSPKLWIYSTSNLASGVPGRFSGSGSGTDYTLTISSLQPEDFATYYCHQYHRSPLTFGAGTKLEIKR ?
Given back: 16
